For each of the compounds below, state its log10 vapour pressure (mmHg).
Give bare numbers.

Parameters: items (list). Returns: log10 vapour pressure (mmHg) for each item.
1. C=C(C)CCCCC
2. CC(=O)c1ccccc1
3. CC(=O)OC/C=C(\C)CCC=C(C)C
4. CCCCCC(C)CC (centres undefined)

A:
1: 1.3; 2: -0.401; 3: -1.48; 4: 0.796

* * *

Classify as follows. Reported melting point greater than or equal to 100 °C: yes. Reported melting point below: no.

{"COMPOUND": "O=c1oc2ccccc2c(O)c1C(CC(O)c1ccc(Cl)cc1)c1ccc(Cl)s1 (centres undefined)", "ANSWER LABEL": "yes"}

Q: Does FC(F)(F)c1nc2ccccc2[nH]1 have a reported melting point of at least 100 °C?
A: yes

Q: Does CCCCCCCCCCCC(=O)OCCOCCO have a reported melting point of at least 100 °C?
A: no

Q: Does Cc1ncccn1 have a reported melting point of at least 100 °C?
A: no

Q: Does NC(=O)c1ccccc1Cl have a reported melting point of at least 100 °C?
A: yes

Q: Does NNc1ccc(Br)cc1 have a reported melting point of at least 100 °C?
A: yes

Q: Does CC(/C=C/C=C(C)/C=C/[C@@]1(O)C(C)(C)CCC[C@@]1(C)O)=C\C=C\C=C(C)\C=C\C(=O)O have a reported melting point of at least 100 °C?
A: yes

Q: Does Nc1ccc2c(c1)CCC2 have a reported melting point of at least 100 °C?
A: no

Q: Does CCCCCCCCCCCCCC#N have a reported melting point of at least 100 °C?
A: no

Q: Does CC(N)=S have a reported melting point of at least 100 °C?
A: yes

Q: Does Nc1ccc2ccccc2c1S(=O)(=O)O have a reported melting point of at least 100 °C?
A: yes

* * *

Values of boiling point strictly less than 200 °C map to 1 (yes), and values of at least 200 °C map to 0 (no).

Q: Consider O=C1OC(=O)c2cc(Cl)c(Cl)cc21 . Does its boiling point lie strictly below 200 °C?
A: 0 (no)

Q: Consider CC(=O)OCCl . Does its boiling point lie strictly below 200 °C?
A: 1 (yes)

Q: Consider C/C=C(\C)C(=O)OC . Does its boiling point lie strictly below 200 °C?
A: 1 (yes)

Q: Consider CCCCCCCCCCCCCCCCBr . Does its boiling point lie strictly below 200 °C?
A: 0 (no)

Q: Consider CCCCN(CC)c1c([N+](=O)[O-])cc(C(F)(F)F)cc1[N+](=O)[O-] . Does its boiling point lie strictly below 200 °C?
A: 0 (no)

Q: Consider C=C(CC)CCC . Does its boiling point lie strictly below 200 °C?
A: 1 (yes)

Q: Consider C#CCCl . Does its boiling point lie strictly below 200 °C?
A: 1 (yes)

* * *

For each of the compounds below, state its boiling point.
One number for each entry, in °C.

Below, each entry is followed by its recorded boiling point result.
{"GIVEN SMILES": "Fc1c(F)c(F)c(Br)c(Br)c1F", "boiling point, °C": 198}
{"GIVEN SMILES": "NNc1ccccc1", "boiling point, °C": 244}
{"GIVEN SMILES": "CC(C)OC(=O)[C@H](O)[C@@H](O)C(=O)OC(C)C", "boiling point, °C": 275}

Parameters: items (list). Returns: boiling point for each item.
1. CCOCCl
2. CCc1ccc([N+](=O)[O-])cc1

A:
[83, 246]

* * *

For each of the molecules below, state its melting point.
Give bare numbers, in °C.

{"MOLECULE": "CC(O)CO (centres undefined)", "REPORTED PROPERTY": "melting point", "MEASURED": -60}

Parameters: items (list). Returns: melting point for each item.
1. O=C1CCc2cccc3c2N1CC3
2. CCOc1ccc(N=Nc2ccc(OCC)cc2)cc1
3. CCB(Cl)CC

A:
[112, 162, -84.6]

* * *

REPORTED PROPERTY: boiling point (°C)
Numbers only, in °C.

{"COMPOUND": "Cc1cccc(O)c1", "UNITS": "°C", "boiling point": 202}
{"COMPOUND": "C[C@H](O)CCCO", "UNITS": "°C", "boiling point": 202}

Q: Return boiling point (reported value) for this compound: CC(Br)C(=O)O (stereo not drawn)
A: 203

* * *

REPORTED PROPERTY: boiling point (°C)
One number for each entry, in °C.

{"COMPOUND": "CCCCOCCOCCOCCO", "boiling point / °C": 278}
{"COMPOUND": "FC(F)(F)C(F)(F)C(F)(F)C(F)(F)C(F)(F)C(F)(F)C(F)(F)C(F)(F)F", "boiling point / °C": 106}
{"COMPOUND": "CC=C(C)C(C)(C)C", "boiling point / °C": 112}
{"COMPOUND": "C=CCCCCCCCCCCCCCCCCC", "boiling point / °C": 329}
{"COMPOUND": "O=[N+]([O-])c1cccc(C(F)(F)F)c1", "boiling point / °C": 203}
{"COMPOUND": "CC(C)COCc1ccccc1", "boiling point / °C": 212}
{"COMPOUND": "CCC(C)C(C)C(C)(C)C (configuration not stated)", "boiling point / °C": 157}
{"COMPOUND": "CCCCCCCC/C=C\\CCCCCCCC(=O)O", "boiling point / °C": 360}
{"COMPOUND": "CCCC1CCNCC1", "boiling point / °C": 173}
{"COMPOUND": "CC(C)CN=C=O", "boiling point / °C": 106}

Parameters: items (list). Returns: boiling point for each item.
1. CC1=Cc2ccccc2C1
2. ClC#CCl
3. CC(C#N)CCC#N (configuration not stated)
4. CC(=O)Oc1cc(C)ccc1C
5. CC(C)NCc1ccccc1
6. CCCCCCCCCCCC(=O)O
7. CC(=O)c1ccc(C)cc1
8. CCO[Si](CCCN)(OCC)OCC

A:
[208, 33, 263, 237, 200, 299, 226, 217]

Parameters: items (list). Returns: boiling point for each item.
1. Cc1ccc(Br)c(C)c1
2. CCCCCCCCC(=O)O
3. NC1CCC1
4. CC[Si](O)(CC)CC
5. FC(Cl)C(F)(F)F (configuration not stated)
6. NCCCCCO
7. CCCOC(=O)CCl
8. C=Cc1ccc(OC)cc1

A:
[205, 254, 82, 154, -12, 222, 161, 205]

Parameters: items (list). Returns: boiling point for each item.
1. Cc1ccc[nH]1
2. Brc1ccc(Br)c2ccccc12
3. Cc1ccc(C)c2occc12
4. C=C

A:
[147, 310, 216, -104]

Parameters: items (list). Returns: boiling point for each item.
1. COCC1CO1 (configuration not stated)
2. Cc1ccccc1N=Cc1ccccc1

A:
113
314

* * *

For each of the compounds below, state its melting point.
Numbers only, in °C.

{"COMPOUND": "CCCCCCCCCCCCCCCCCCCCC1CCCCC1", "UNITS": "°C", "melting point": 48.5}
{"COMPOUND": "CN(C)c1ccc(/N=N/c2ccccc2C(=O)O)cc1", "UNITS": "°C", "melting point": 183}
{"COMPOUND": "O=C(O)C1CCCCN1 (stereo not given)", "UNITS": "°C", "melting point": 264}
{"COMPOUND": "c1nnn[nH]1", "UNITS": "°C", "melting point": 157}

Q: Return melting point (reported value) for this compound: CCCCCCCC(=O)c1ccccc1
A: 22.8

* * *

So basically every entry gets a class from its melting point, ranges being low range = under 40 °C, mid range = from 40 °C up to 100 °C, high range = 100 °C and over

The following compounds have reported results that may help.
{"COMPOUND": "CON(C)C(=O)Nc1ccc(Br)cc1", "ANSWER LABEL": "mid range"}
{"COMPOUND": "CC(C)(N)C(=O)O", "ANSWER LABEL": "high range"}
{"COMPOUND": "Cc1ccnc(C)n1", "ANSWER LABEL": "low range"}
{"COMPOUND": "N#Cc1cc(I)c(O)c([N+](=O)[O-])c1", "ANSWER LABEL": "high range"}
{"COMPOUND": "COc1ccc(CCc2cc(OC)c3ccccc3n2)cc1OC", "ANSWER LABEL": "high range"}

Q: State the band of O=[N+]([O-])c1ccccc1F
A: low range

Q: State the band of O=C1OC(c2cc(Br)c(O)c(Br)c2)(c2cc(Br)c(O)c(Br)c2)c2ccccc21
A: high range

Q: State the band of COc1ccccc1C=C(C(=O)O)c1ccccc1
A: high range

Q: State the band of C=C1CC[C@H](O)C/C1=C/C=C1\CCC[C@]2(C)[C@@H]([C@H](C)CCCC(C)C)CC[C@@H]12
A: mid range

Q: State the band of COC(=O)[C@@H](N)Cc1ccc(O)cc1
A: high range

Q: State the band of CCCCN(CCCC)C(=O)COC(=O)c1ccccc1
A: low range

Q: State the band of CC(C)I
A: low range
